assay: PAX8 transcriptional activity inhibition in RMG-I – RMG-I cells, luciferase, single concentration, primary screen (AID 652154); conditions: RMG-I TPO-luciferase reporter, SteadyGlo, 24 h; at 12.6 µM;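 note: luciferase light reporting Pax8 driven TPO promoter activity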
About 4,200 (1.2%) of roughly 360,000 compounds were called active.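 Rule for the calls: active = mean replicate inhibition at least 60% with every replicate also reaching 60%; inconclusive = only one of the two criteria is met; inactive = mean below 60% and not all replicates reaching 60%.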 The sample holds actives, similar compounds and a random draw of the others, so the mix is not that of the screen.
The reply should be one of these categories: active, inactive

Example entries and their recorded answers appear below.
INSERT INTO assay_data (compound, assigned_category) VALUES
  ('CC(=CCOc1ccc2ccc(=O)oc2c1)C1=CC(=O)C(C)(C)O1', 'active'),
  ('CC1=CC(=Cc2sc3ccccc3[n+]2C)C=C(C)O1', 'active'),
  ('O=C(Cc1ccccn1)N1CCCCN2[C@H](C1)[C@H](c1ccc(-c3ccccc3F)cc1)[C@@H]2CO', 'inactive');

Inquiry: For O=C(Cc1ccccc1)N1CCCCN2[C@H](CO)[C@H](c3ccc(C#Cc4ccccc4)cc3)[C@H]2C1 , which call appears in the assay record?
Reply text: inactive

Inquiry: For COc1ccc(C#Cc2ccc([C@H]3[C@H](CO)N4CCCCN(C(=O)Cc5ccccc5)C[C@@H]34)cc2)cc1 , which call appears in the assay record?
Reply text: inactive

Inquiry: For COc1cccc(-c2ccc([C@H]3[C@H]4CN(C(=O)Cc5ccncc5)CCCCN4[C@H]3CO)cc2)c1 , which call appears in the assay record?
Reply text: inactive

Inquiry: For COc1cccc(-c2ccc3n(c2=O)C[C@@H]2[C@@H](CO)[C@H](C(=O)O)[C@H]3N2C(=O)c2cnccn2)c1 , which call appears in the assay record?
Reply text: inactive

Inquiry: For COc1cc(OC)cc(C(=O)NCCN2CCC3(CC2)C(=O)NCN3c2ccccc2)c1 , which call appears in the assay record?
Reply text: inactive

Inquiry: For CCCCCCCCCCCCn1ccc(=N)cc1 , which call appears in the assay record?
Reply text: active

Cited source: PubChem BioAssay AID652154
